# assayed_system: Alpha-1A adrenergic receptor (Homo sapiens, UniProt P35348)
# Sequence (P35348 whole entry): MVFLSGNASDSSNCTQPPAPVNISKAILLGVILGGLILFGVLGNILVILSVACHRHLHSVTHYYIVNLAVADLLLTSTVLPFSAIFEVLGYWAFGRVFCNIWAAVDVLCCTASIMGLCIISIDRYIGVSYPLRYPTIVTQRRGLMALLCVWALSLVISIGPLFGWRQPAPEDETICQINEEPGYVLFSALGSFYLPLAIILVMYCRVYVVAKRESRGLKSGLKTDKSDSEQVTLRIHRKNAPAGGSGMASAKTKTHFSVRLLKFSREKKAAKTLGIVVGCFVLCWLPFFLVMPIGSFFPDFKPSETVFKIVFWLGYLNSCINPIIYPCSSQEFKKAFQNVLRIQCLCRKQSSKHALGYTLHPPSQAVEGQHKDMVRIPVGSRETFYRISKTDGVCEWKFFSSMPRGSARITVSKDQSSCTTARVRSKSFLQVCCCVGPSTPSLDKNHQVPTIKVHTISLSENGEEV
# assay_name: Evaluated for the ability to displace [125I]- HEAT from human cloned Alpha-1A adrenergic receptor stably expressed in CHO cells.
# Type: cell-based
pKi: −log10 of the molar value.

| chemical_string | pKi |
| --- | --- |
| O=C1NC=C(C(=O)NCCCN2CCC(O)(c3ccc(F)cc3)CC2)[C@@H](c2ccc(F)c(F)c2)N1 | 9.04 |
| CC1=C(C(=O)NCCCN2CCC(c3ccc(F)cc3)CC2)[C@@H](c2ccc(F)c(F)c2)N(C)C(=O)N1 | 9.85 |
| COCC1=C(C(=O)NCCCN2CCC(c3ccccn3)CC2)[C@@H](c2ccc(F)c(F)c2)NC(=O)N1 | 9.35 |
| O=C1NC=C(C(=O)NCCCN2CCC(c3ccc(F)cc3)CC2)[C@@H](c2ccc(F)c(F)c2)N1 | 9.77 |
| CC1=C(C(=O)NCCCN2CCC(C#N)(c3ccc(F)cc3)CC2)[C@@H](c2ccc(F)c(F)c2)NC(=O)N1C | 9.41 |
| COC(=O)N1C(=O)N(C)C(C)=C(C(=O)NCCCN2CCC(c3ccc(F)cc3)CC2)[C@H]1c1ccc(F)c(F)c1 | 9.12 |
| O=C1NC=C(C(=O)NCCCN2CCC(c3ccccn3)CC2)[C@@H](c2ccc(F)c(F)c2)N1 | 8.60 |
| CC1=C(C(=O)NCCCN2CCC(c3ccccn3)CC2)[C@@H](c2ccc(F)c(F)c2)NC(=O)N1 | 8.59 |
| CN1C=C(C(=O)NCCCN2CCC(C#N)(c3ccc(F)cc3C#N)CC2)[C@@H](c2ccc(F)c(F)c2)NC1=O | 9.74 |
| N#Cc1ccccc1C1CCN(CCCNC(=O)C2=CNC(=O)N[C@@H]2c2ccc(F)c(F)c2)CC1 | 9.89 |

---

# bioavailability listing for each entry below
# assay_name: Bioavailability in dog (dose 0.5 mg/kg i.v. and 1 mg/kg p.o.)
# Type: ADME, organism-based, Canis lupus familiaris
# run_parameters: in vivo, po
measurement_name: bioavailability (%)

| chemical_string | data_value |
| --- | --- |
| CC1=C(C(=O)NCCCN2CCC(c3ccc(F)cc3C#N)CC2)[C@@H](c2ccc(F)c(F)c2)NC(=O)N1C | 27 |
| COCC1=C(C(=O)NCCCN2CCC(c3ccccn3)CC2)[C@@H](c2ccc(F)c(F)c2)NC(=O)N1 | 48 |

---

# Ki listing for each entry below
# assayed_system: Alpha-1B adrenergic receptor (Homo sapiens, UniProt P35368)
# Sequence (P35368 whole entry): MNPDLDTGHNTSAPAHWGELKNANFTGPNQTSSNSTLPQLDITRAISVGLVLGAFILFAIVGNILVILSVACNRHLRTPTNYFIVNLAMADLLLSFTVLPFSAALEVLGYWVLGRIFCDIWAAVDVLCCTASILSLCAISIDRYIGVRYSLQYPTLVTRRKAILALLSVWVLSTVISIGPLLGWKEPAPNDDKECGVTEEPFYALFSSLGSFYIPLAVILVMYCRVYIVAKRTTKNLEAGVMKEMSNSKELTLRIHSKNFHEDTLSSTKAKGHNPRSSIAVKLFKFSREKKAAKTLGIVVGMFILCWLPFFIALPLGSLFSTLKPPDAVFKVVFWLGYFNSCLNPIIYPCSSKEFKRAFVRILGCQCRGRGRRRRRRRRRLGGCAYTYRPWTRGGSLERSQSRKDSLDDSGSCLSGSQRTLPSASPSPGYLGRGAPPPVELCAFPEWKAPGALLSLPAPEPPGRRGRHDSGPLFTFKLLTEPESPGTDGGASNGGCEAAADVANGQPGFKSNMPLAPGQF
# assay_name: Evaluated for the ability to displace [125I]- HEAT from human cloned Alpha-1B adrenergic receptor stably expressed in LM cells.
# Assay type: cell-based

| chemical_string | units_of_measure | Ki |
| --- | --- | --- |
| N#Cc1ccccc1C1(C#N)CCN(CCCNC(=O)C2=CNC(=O)N[C@@H]2c2ccc(F)c(F)c2)CC1 | nM | 970 |
| CC1=C(C(=O)NCCCN2CCC(c3ccc(F)cc3)CC2)[C@@H](c2ccc(F)c(F)c2)N(C)C(=O)N1 | nM | 4.8 |
| O=C1NC=C(C(=O)NCCCN2CCC(c3ccc(F)cc3)CC2)[C@@H](c2ccc(F)c(F)c2)N1 | nM | 24 |
| COCC1=C(C(=O)NCCCN2CCC(c3ccccn3)CC2)[C@@H](c2ccc(F)c(F)c2)NC(=O)N1 | nM | 235 |

---

# assayed_system: UniProt:P35348
# assay_name: Evaluated for the ability to displace [125I]- HEAT from human cloned Alpha-1A adrenergic receptor stably expressed in CHO cells.
# Assay type: cell-based
measurement_name: log10(Ki) (log10 of the value in nM)

| chemical_string | data_value |
| --- | --- |
| CN1C=C(C(=O)NCCCN2CCC(c3ccc(F)cc3C#N)CC2)[C@@H](c2ccc(F)c(F)c2)NC1=O | -1.17 |
| N#Cc1ccccc1C1(C#N)CCN(CCCNC(=O)C2=CNC(=O)N[C@@H]2c2ccc(F)c(F)c2)CC1 | -0.80 |
| CC1=C(C(=O)NCCCN2CCC(c3ccc(F)cc3C#N)CC2)[C@@H](c2ccc(F)c(F)c2)NC(=O)N1C | -0.92 |
| COCC1=C(C(=O)NCCCN2CCC(c3ccccc3C#N)CC2)[C@@H](c2ccc(F)c(F)c2)NC(=O)N1 | -0.38 |
| N#Cc1ccccc1C1CCN(CCCNC(=O)C2=C(C(F)(F)F)NC(=O)N[C@@H]2c2ccc(F)c(F)c2)CC1 | 1.30 |
| CC1=C(C(=O)NCCCN2CCC(c3ccc(F)cc3)CC2)[C@H](c2ccc(F)c(F)c2)NC(=O)N1C | 1.30 |
| N#CC1(c2ccc(F)cc2)CCN(CCCNC(=O)C2=CNC(=O)N[C@@H]2c2ccc(F)c(F)c2)CC1 | -0.77 |
| N#Cc1cc(F)ccc1C1CCN(CCCNC(=O)C2=CNC(=O)N[C@@H]2c2ccc(F)c(F)c2)CC1 | -1.15 |
| CC1=C(C(=O)NCCCN2CCC(C#N)(c3ccc(F)cc3C#N)CC2)[C@@H](c2ccc(F)c(F)c2)NC(=O)N1C | -0.22 |
| COCC1=C(C(=O)NCCCN2CCC(c3ccc(F)cc3C#N)CC2)[C@@H](c2ccc(F)c(F)c2)NC(=O)N1 | -0.85 |
| CC(=O)N1C(=O)N(C)C(C)=C(C(=O)NCCCN2CCC(c3ccc(F)cc3)CC2)[C@H]1c1ccc(F)c(F)c1 | 0.34 |
| CN1C=C(C(=O)NCCCN2CCC(C#N)(c3ccc(F)cc3C#N)CC2)[C@@H](c2ccc(F)c(F)c2)N(C)C1=O | -0.52 |
| N#Cc1cc(F)ccc1C1CCN(CCCNC(=O)C2=C(C(F)(F)F)NC(=O)N[C@@H]2c2ccc(F)c(F)c2)CC1 | 0.62 |
| O=C1NC(C(F)(F)F)=C(C(=O)NCCCN2CCC(c3ccccn3)CC2)[C@@H](c2ccc(F)c(F)c2)N1 | 2.70 |
| CC1=C(C(=O)NCCCN2CCC(c3ccccc3C#N)CC2)[C@@H](c2ccc(F)c(F)c2)NC(=O)N1 | -0.60 |
| CC1=C(C(=O)NCCCN2CCC(c3ccc(F)cc3C#N)CC2)[C@@H](c2ccc(F)c(F)c2)NC(=O)N1 | -0.77 |

---

# assayed_system: Alpha-1D adrenergic receptor (Homo sapiens)
# Sequence (P25100 whole entry): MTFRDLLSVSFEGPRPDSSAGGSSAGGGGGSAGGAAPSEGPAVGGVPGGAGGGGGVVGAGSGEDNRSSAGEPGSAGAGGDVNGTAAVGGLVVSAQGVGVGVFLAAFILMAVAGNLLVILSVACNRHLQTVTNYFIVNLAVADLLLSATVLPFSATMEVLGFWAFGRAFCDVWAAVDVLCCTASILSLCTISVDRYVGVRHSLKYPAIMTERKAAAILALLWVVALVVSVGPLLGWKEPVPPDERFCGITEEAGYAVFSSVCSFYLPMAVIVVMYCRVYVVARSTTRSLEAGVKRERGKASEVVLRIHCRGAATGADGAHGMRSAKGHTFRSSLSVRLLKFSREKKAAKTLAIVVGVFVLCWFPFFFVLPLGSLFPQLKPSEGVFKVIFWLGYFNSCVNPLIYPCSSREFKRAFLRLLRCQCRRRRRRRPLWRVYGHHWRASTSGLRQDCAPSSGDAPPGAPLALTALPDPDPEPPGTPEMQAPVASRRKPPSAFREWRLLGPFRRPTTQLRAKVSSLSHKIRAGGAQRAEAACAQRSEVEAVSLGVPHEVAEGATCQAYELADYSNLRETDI
# assay_name: Evaluated for the ability to displace [125I]- HEAT from human cloned Alpha-1D adrenergic receptor stably expressed in HEK cells.
# Type: cell-based, HEK293
pKi: −log10 of the molar value.

| chemical_string | bound_type | pKi |
| --- | --- | --- |
| CC1=C(C(=O)NCCCN2CCC(c3ccc(F)cc3C#N)CC2)[C@@H](c2ccc(F)c(F)c2)NC(=O)N1 | = | 6.67 |
| CC1=C(C(=O)NCCCN2CCC(c3ccc(F)cc3C#N)CC2)[C@@H](c2ccc(F)c(F)c2)NC(=O)N1C | = | 6.47 |
| COCC1=C(C(=O)NCCCN2CCC(c3ccccn3)CC2)[C@@H](c2ccc(F)c(F)c2)NC(=O)N1 | = | 6.31 |
| O=C1NC(C(F)(F)F)=C(C(=O)NCCCN2CCC(c3ccccn3)CC2)[C@@H](c2ccc(F)c(F)c2)N1 | < | 5.30 |
| CC(=O)N1C(=O)N(C)C(C)=C(C(=O)NCCCN2CCC(c3ccc(F)cc3)CC2)[C@H]1c1ccc(F)c(F)c1 | = | 6.64 |
| COCC1=C(C(=O)NCCCN2CCC(c3ccc(F)cc3)CC2)[C@@H](c2ccc(F)c(F)c2)NC(=O)N1 | = | 6.59 |
| CC1=C(C(=O)NCCCN2CCC(C#N)(c3ccc(F)cc3)CC2)[C@@H](c2ccc(F)c(F)c2)NC(=O)N1C | = | 5.66 |
| N#Cc1ccccc1C1CCN(CCCNC(=O)C2=CNC(=O)N[C@@H]2c2ccc(F)c(F)c2)CC1 | = | 6.80 |
| O=C1NC=C(C(=O)NCCCN2CCC(c3ccccn3)CC2)[C@@H](c2ccc(F)c(F)c2)N1 | < | 5.52 |
| CC1=C(C(=O)NCCCN2CCC(C#N)(c3ccc(F)cc3C#N)CC2)[C@@H](c2ccc(F)c(F)c2)NC(=O)N1C | < | 5.40 |
| N#Cc1cc(F)ccc1C1CCN(CCCNC(=O)C2=CNC(=O)N[C@@H]2c2ccc(F)c(F)c2)CC1 | = | 7.21 |
| CN1C=C(C(=O)NCCCN2CCC(C#N)(c3ccc(F)cc3C#N)CC2)[C@@H](c2ccc(F)c(F)c2)NC1=O | = | 6.20 |
| N#Cc1ccccc1C1CCN(CCCNC(=O)C2=C(C(F)(F)F)NC(=O)N[C@@H]2c2ccc(F)c(F)c2)CC1 | = | 6.66 |
| CC1=C(C(=O)NCCCN2CCC(c3ccccc3C#N)CC2)[C@@H](c2ccc(F)c(F)c2)NC(=O)N1 | = | 6.77 |
| N#Cc1cc(F)ccc1C1CCN(CCCNC(=O)C2=C(C(F)(F)F)NC(=O)N[C@@H]2c2ccc(F)c(F)c2)CC1 | = | 6.57 |
| O=C1NC=C(C(=O)NCCCN2CCC(c3ccc(F)cc3)CC2)[C@@H](c2ccc(F)c(F)c2)N1 | = | 7.17 |
| COCC1=C(C(=O)NCCCN2CCC(c3ccccc3C#N)CC2)[C@@H](c2ccc(F)c(F)c2)NC(=O)N1 | = | 6.55 |
| N#Cc1ccccc1C1(C#N)CCN(CCCNC(=O)C2=CNC(=O)N[C@@H]2c2ccc(F)c(F)c2)CC1 | = | 5.62 |
| CC1=C(C(=O)NCCCN2CCC(c3ccccn3)CC2)[C@@H](c2ccc(F)c(F)c2)NC(=O)N1 | < | 5.30 |
| COCC1=C(C(=O)NCCCN2CCC(c3ccc(F)cc3C#N)CC2)[C@@H](c2ccc(F)c(F)c2)NC(=O)N1 | = | 6.59 |
| O=C1NC(C(F)(F)F)=C(C(=O)NCCCN2CCC(c3ccc(F)cc3)CC2)[C@@H](c2ccc(F)c(F)c2)N1 | = | 5.92 |
| CN1C=C(C(=O)NCCCN2CCC(c3ccc(F)cc3C#N)CC2)[C@@H](c2ccc(F)c(F)c2)NC1=O | = | 7.16 |
| COC(=O)N1C(=O)N(C)C(C)=C(C(=O)NCCCN2CCC(c3ccc(F)cc3)CC2)[C@H]1c1ccc(F)c(F)c1 | = | 6.77 |
| N#CC1(c2ccc(F)cc2)CCN(CCCNC(=O)C2=CNC(=O)N[C@@H]2c2ccc(F)c(F)c2)CC1 | = | 6.09 |
| O=C1NC=C(C(=O)NCCCN2CCC(O)(c3ccc(F)cc3)CC2)[C@@H](c2ccc(F)c(F)c2)N1 | = | 6.06 |
| CC1=C(C(=O)NCCCN2CCC(c3ccc(F)cc3)CC2)[C@@H](c2ccc(F)c(F)c2)N(C)C(=O)N1 | = | 6.92 |
| CN1C=C(C(=O)NCCCN2CCC(C#N)(c3ccc(F)cc3C#N)CC2)[C@@H](c2ccc(F)c(F)c2)N(C)C1=O | = | 6.60 |
